Biological target: rhCD45 His tag (human) (UniProt P08575)
Assay: BLI (Octet HTX), compared with the parental antibody
OUTCOME MEASURE: fold change in KD relative to the parental antibody

Incoming: I'd like to know its fold change in KD relative to the parental antibody. The binder in question is hu CD45 HC2 + LC4 (antibody, V domains shown) VH: EVQLLESGGGLVQPGGSLRLSCAASGFDFSRYWMSWVRQAPGKGLEWVSEINPTSSTINYADSVKGRFTISRDNSKNTLYLQMNSLRAEDTAVYYCARGNYYRYGDAMDYWGQGTMVTVSS VL: DIQMTQSPSSLSASVGDRVTITCRASKSVSTSGYSYLHWYQQKPGKAPKLLIYLASNLQSGVPSRFSGSGSGTDFTLTISSLQPEDFATYYCQHSRELPFTFGQGTKLEIK
Outgoing: < 10 fold

Incoming: I'd like to know its fold change in KD relative to the parental antibody. The binder in question is hu CD45 HC4 + LC1 (antibody, V domains shown) VH: EVQLVESGGGLVKPGGSLRLSCAASGFDFSRYWMSWVRQAPGKGLEWVSEINPTSSTINYADSVKGRFTISRDNAKNSLYLQMNSLRAEDTAVYYCARGNYYRYGDAMDYWGQGTMVTVSS VL: DIVMTQSPDSLAVSLGERATINCKSSKSVSTSGYSYLHWYQQKPGQPPKLLIYLASNLESGVPDRFSGSGSGTDFTLTISSLQAEDVAVYYCQHSRELPFTFGQGTKLEIK
Outgoing: < 10 fold

Incoming: I'd like to know its fold change in KD relative to the parental antibody. The binder in question is hu CD45 HC2 + LC3 (antibody, V domains shown) VH: EVQLLESGGGLVQPGGSLRLSCAASGFDFSRYWMSWVRQAPGKGLEWVSEINPTSSTINYADSVKGRFTISRDNSKNTLYLQMNSLRAEDTAVYYCARGNYYRYGDAMDYWGQGTMVTVSS VL: EIVLTQSPATLSLSPGERATLSCRASKSVSTSGYSYLHWYQQKPGQAPRLLIYLASNLATGIPARFSGSGSGTDFTLTISSLEPEDFAVYYCQHSRELPFTFGQGTKLEIK
Outgoing: < 10 fold
